# targetSystem: Motilin Receptor (Oryctolagus cuniculus, UniProt G1T803)
# Construct: strips of longitudinal smooth muscle were sliced from the segments; from tissue; host or cells: rabbit duodenum longitudinal smooth muscle strips
# Sequence (G1T803 1-400): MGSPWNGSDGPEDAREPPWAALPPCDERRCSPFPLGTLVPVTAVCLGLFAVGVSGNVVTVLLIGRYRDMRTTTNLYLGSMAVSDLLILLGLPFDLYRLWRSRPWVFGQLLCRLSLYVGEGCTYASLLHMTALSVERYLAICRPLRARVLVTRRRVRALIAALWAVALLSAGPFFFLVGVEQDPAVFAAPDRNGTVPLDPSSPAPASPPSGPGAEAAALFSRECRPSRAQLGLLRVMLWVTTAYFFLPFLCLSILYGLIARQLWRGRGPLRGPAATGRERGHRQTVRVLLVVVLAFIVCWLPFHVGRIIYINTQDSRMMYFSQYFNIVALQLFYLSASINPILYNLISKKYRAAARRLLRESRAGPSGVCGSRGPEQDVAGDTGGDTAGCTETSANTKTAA
# measurementProtocol: Tissue based assay for motilin agonist potency (rabbit duodenum contractility)
# Assay type: cell-based
# measurementSetup: rabbit duodenum strips, contraction normalized to 1 μM carbachol; read-out: Motilin Receptor Agonist Activity (EC50)
Measured pEC50, listed per entry.
// pEC50: -log10(molar conc.)

For record CC[C@H]1OC(=O)[C@H](C)[C@@H](O[C@H]2C[C@@](C)(OC)[C@@H](O)[C@H](C)O2)[C@H](C)[C@@H](O[C@@H]2O[C@H](C)C[C@H](N(C)C[C@H](C)O)[C@H]2O)[C@](C)(O)C[C@@H](C)[C@H](OS(=O)(=O)N(C)C)[C@H](C)[C@@H](O)[C@]1(C)O the listed pEC50 is 6.31

For record CCOC(=O)CO[C@@H]1[C@H](C)[C@@H](O)[C@](C)(O)[C@@H](CC)OC(=O)[C@H](C)[C@@H](O[C@H]2C[C@@](C)(OC)[C@@H](O)[C@H](C)O2)[C@H](C)[C@@H](O[C@@H]2O[C@H](C)C[C@H](N(C)C(C)C)[C@H]2O)[C@](C)(O)C[C@H]1C the listed pEC50 is 7.06

----------
# targetSystem: Motilin Receptor (Oryctolagus cuniculus)
# Construct: strips of longitudinal smooth muscle were sliced from the segments; from tissue; host or cells: rabbit duodenum longitudinal smooth muscle strips
# measurementProtocol: Tissue based assay for motilin agonist potency (rabbit duodenum contractility)
# Type: cell-based
# measurementSetup: rabbit duodenum strips, contraction normalized to 1 μM carbachol; read-out: Motilin Receptor Agonist Activity (EC50)
measurementLabel: EC50 (nM)
Answer with a number only, understood to be in nM.

Recorded EC50, per entry:
smilesstructure=CC[C@H]1OC(=O)[C@H](C)[C@@H](O[C@H]2C[C@@](C)(OC)[C@@H](O)[C@H](C)O2)[C@H](C)[C@@H](O[C@@H]2O[C@H](C)C[C@H](N(C)C[C@H](C)O)[C@H]2O)[C@](C)(O)C[C@@H](C)[C@H](OCC(=O)O)[C@H](C)[C@@H](O)[C@]1(C)O valueobserved=740
smilesstructure=CCCNC(=S)NCCO[C@@H]1[C@H](C)[C@@H](O)[C@](C)(O)[C@@H](CC)OC(=O)[C@H](C)[C@@H](O[C@H]2C[C@@](C)(OC)[C@@H](O)[C@H](C)O2)[C@H](C)[C@@H](O[C@@H]2O[C@H](C)C[C@H](N(C)C(C)C)[C@H]2O)[C@](C)(O)C[C@H]1C valueobserved=210

Now take the following molecule into account.
For record CC[C@H]1OC(=O)[C@H](C)[C@@H](O[C@H]2C[C@@](C)(OC)[C@@H](O)[C@H](C)O2)[C@H](C)[C@@H](O[C@@H]2O[C@H](C)C[C@H](N(C)C(C)C)[C@H]2O)[C@](C)(O)C[C@@H](C)[C@H](OCC(=O)NC(C)C)[C@H](C)[C@@H](O)[C@]1(C)O the listed EC50 is 140

----------
# targetSystem: Motilin Receptor (Oryctolagus cuniculus, UniProt G1T803)
# Construct: strips of longitudinal smooth muscle were sliced from the segments; from tissue; host or cells: rabbit duodenum longitudinal smooth muscle strips
# measurementProtocol: Tissue based assay for motilin agonist potency (rabbit duodenum contractility)
# Type: cell-based
# measurementSetup: rabbit duodenum strips, contraction normalized to 1 μM carbachol; read-out: Motilin Receptor Agonist Activity (EC50)
Measured pEC50, listed per entry.
// pEC50: -log10(molar conc.)

compound=CC[C@H]1OC(=O)[C@H](C)[C@@H](O[C@H]2C[C@@](C)(OC)[C@@H](O)[C@H](C)O2)[C@H](C)[C@@H](O[C@@H]2O[C@H](C)C[C@H](N(C)C[C@H](C)O)[C@H]2O)[C@](C)(O)C[C@@H](C)[C@H](OCC(=O)N(C)C)[C@H](C)[C@@H](O)[C@]1(C)O valueobserved=5.54

For record CC[C@H]1OC(=O)[C@H](C)[C@@H](O[C@H]2C[C@@](C)(OC)[C@@H](O)[C@H](C)O2)[C@H](C)[C@@H](O[C@@H]2O[C@H](C)C[C@H](N(C)C(C)C)[C@H]2O)[C@@]2(C)CC(C)=C(O2)[C@H](C)C(=O)[C@]1(C)OC [GM-611, reference compound] the listed pEC50 is 7.96

For record CC[C@H]1OC(=O)[C@H](C)[C@@H](OC2C[C@@](C)(OC)C[C@H](C)O2)[C@H](C)[C@@H](OC2O[C@H](C)C[C@H](N(C)CC)[C@H]2O)[C@@]2(C)CC(C)=C(O2)[C@H](C)[C@@H](O)[C@H]1C (stereo partly shown) [ABT-229, reference compound] the listed pEC50 is 8.15

For record CC[C@H]1OC(=O)[C@H](C)[C@@H](O[C@H]2C[C@@](C)(OC)[C@@H](O)[C@H](C)O2)[C@H](C)[C@@H](O[C@@H]2O[C@H](C)C[C@H](N(C)C(C)C)[C@H]2O)[C@](C)(O)C[C@@H](C)[C@H](OC(=O)NC)[C@H](C)[C@@H](O)[C@]1(C)O the listed pEC50 is 6.40
